B1: KRT71 (parent)
chain: FGSRSLYSLGGVRSLNVASGSGKS

Variants of: B1
Test: protein stability index of a GFP-peptide fusion (GPS, HEK-293T) (PSI 1-6); higher = more stable;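 also: lentivirally expressed fusions sorted by FACS into six bins by GFP to DsRed ratio, PSI derived from sequencing read proportions per bin multiplied by bin number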
Settings: c terminus: a fixed tail appended
Decision: protein stability index >= 2 yields rule met, all other cases yield rule not met.

1) F1D = rule met
2) S21I = rule met
3) N16D = rule met
4) V17S = rule not met
5) V17R = rule not met
6) V12C = rule not met
7) S24D = rule not met
8) L15Y = rule met
9) S14T = rule not met
10) G20E = rule not met
11) Y7Q = rule met
12) S24R = rule not met
13) K23A = rule not met
14) S24F = rule not met
15) S19L = rule not met
16) G2Y = rule met
17) V17I = rule not met
18) S3P = rule met
19) S14D = rule not met
20) S5M = rule not met
21) G11Y = rule met
22) V17L = rule met
23) L15R = rule met
24) G10Q = rule met
25) S8R = rule not met
26) G20S = rule not met
27) R13N = rule not met
28) S14E = rule met
29) V12W = rule not met
30) F1Y = rule not met
31) G10V = rule not met
32) Y7F = rule met
33) S8K = rule met
34) A18I = rule not met
35) S19C = rule not met
36) R13Q = rule not met
37) L6W = rule met
38) A18Q = rule not met
39) S14N = rule met
40) N16E = rule not met
41) Y7N = rule met
42) S21E = rule not met
43) G22W = rule met
44) G10F = rule not met
45) S5K = rule met
46) Y7G = rule met
47) V17C = rule met
48) F1I = rule met
49) K23F = rule met
50) A18W = rule met
51) S5V = rule not met
52) G2Q = rule met
53) R13C = rule met
54) G2D = rule met
55) G10A = rule not met
56) S8D = rule met
57) G2V = rule met
58) Y7I = rule met
59) Y7D = rule met
